Tested on: NCI-H510 multicellular tumor spheroid growth, % test/control
Assay: Anticancer human tumor NCI-H510 cell line growth inhibition [Asc];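 also: spheroids exposed to agents for 7 days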
Conditions: curve of first compound; second compound 1 µM
pIC50: −log10 of the molar value.
OBSERVABLE: pIC50

Sample answers from the record:
| COMPOUND | pIC50 |
| --- | --- |
| Cc1nc(N2CCC3(CC2)COC(C)C3N)c(CO)nc1Sc1ccnc(N)c1Cl (stereo not drawn) + CNC(C)C(=O)NC1CN(S(=O)(=O)c2cccc(S(=O)(=O)N3CCC4CCC(C(=O)NC(c5ccccc5)c5ccccc5)N4C(=O)C(NC(=O)C(C)NC)C3)c2)CCC2CCC(C(=O)NC(c3ccccc3)c3ccccc3)N2C1=O | < 5.52 |
| CCN1CCN(Cc2ccc(Nc3ncc(F)c(-c4cc(F)c5nc(C)n(C(C)C)c5c4)n3)nc2)CC1 + Cc1c(S(C)(=O)=O)c(-c2cc(F)cc(N3CCN(c4ccc(NS(=O)(=O)c5ccc(NC(CCN6CCC(C(=O)OCCCP(=O)(O)O)CC6)CSc6ccccc6)c(S(=O)(=O)C(F)(F)F)c5)cc4)CC3)c2)c(-c2ccc(Cl)cc2)n1C(C)C | 6.19 |

Lab note: next compound to report on.
Q: Sample Cn1ncnc1[C@H]1c2n[nH]c(=O)c3cc(F)cc(c23)N[C@@H]1c1ccc(F)cc1 + CNC(C)C(=O)NC1CN(S(=O)(=O)c2cccc(S(=O)(=O)N3CCC4CCC(C(=O)NC(c5ccccc5)c5ccccc5)N4C(=O)C(NC(=O)C(C)NC)C3)c2)CCC2CCC(C(=O)NC(c3ccccc3)c3ccccc3)N2C1=O — what was its pIC50?
Ans: < 7.00

* * *

Test system: NCI-H510 multicellular tumor spheroid growth, % test/control
Experiment: Anticancer human tumor NCI-H510 cell line growth inhibition [Asc];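 also: spheroids exposed to agents for 7 days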;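 as to viability, T/C: 100% = DMSO vehicle control wells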
Details: second compound 1 µM; first compound 0.1 µM; stronger effect = lower value
Measured viability, T/C, listed per entry.
Field format: number, assumed %, no unit text.

Sample answers from the record:
| COMPOUND | EXPERIMENTAL TARGET | viability, T/C (%) |
| --- | --- | --- |
| CNC(C)C(=O)NC1CN(S(=O)(=O)c2cccc(S(=O)(=O)N3CCC4CCC(C(=O)NC(c5ccccc5)c5ccccc5)N4C(=O)C(NC(=O)C(C)NC)C3)c2)CCC2CCC(C(=O)NC(c3ccccc3)c3ccccc3)N2C1=O (stereo not drawn) + Cc1c(S(C)(=O)=O)c(-c2cc(F)cc(N3CCN(c4ccc(NS(=O)(=O)c5ccc(NC(CCN6CCC(C(=O)OCCCP(=O)(O)O)CC6)CSc6ccccc6)c(S(=O)(=O)C(F)(F)F)c5)cc4)CC3)c2)c(-c2ccc(Cl)cc2)n1C(C)C | NCI-H510 multicellular tumor spheroid growth, % test/control | 103 |
| COc1c(OCCCN2CCOCC2)ccc2c3n(c(=NC(=O)c4cnc(N)nc4)nc12)CCN3 + Cc1c(S(C)(=O)=O)c(-c2cc(F)cc(N3CCN(c4ccc(NS(=O)(=O)c5ccc(NC(CCN6CCC(C(=O)OCCCP(=O)(O)O)CC6)CSc6ccccc6)c(S(=O)(=O)C(F)(F)F)c5)cc4)CC3)c2)c(-c2ccc(Cl)cc2)n1C(C)C | NCI-H510 multicellular tumor spheroid growth, % test/control | 91.2 |

Lab note: next compound to report on.
Q: Sample O=C(c1ccc(F)c(F)c1Nc1ccc(I)cc1F)N1CC(O)([C@@H]2CCCCN2)C1 + CNC(C)C(=O)NC1CN(S(=O)(=O)c2cccc(S(=O)(=O)N3CCC4CCC(C(=O)NC(c5ccccc5)c5ccccc5)N4C(=O)C(NC(=O)C(C)NC)C3)c2)CCC2CCC(C(=O)NC(c3ccccc3)c3ccccc3)N2C1=O — what was its viability, T/C?
Ans: 90.2

* * *

System: NCI-H510 multicellular tumor spheroid growth, % test/control
Assay: Anticancer human tumor NCI-H510 cell line growth inhibition [Asc];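 also: spheroids exposed to agents for 7 days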;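 as to viability, T/C: 100% = DMSO vehicle control wells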
Details: second compound 3.16 µM; first compound 10 µM; stronger effect = lower value
OBSERVABLE: viability, T/C (%)
Field format: number, assumed %, no unit text.

| COMPOUND | EXPERIMENTAL TARGET | UNIT SYMBOL | viability, T/C |
| --- | --- | --- | --- |
| O=C(c1cc(Cc2n[nH]c(=O)c3ccccc23)ccc1F)N1CCN(C(=O)C2CC2)CC1 + Cc1c(S(C)(=O)=O)c(-c2cc(F)cc(N3CCN(c4ccc(NS(=O)(=O)c5ccc(NC(CCN6CCC(C(=O)OCCCP(=O)(O)O)CC6)CSc6ccccc6)c(S(=O)(=O)C(F)(F)F)c5)cc4)CC3)c2)c(-c2ccc(Cl)cc2)n1C(C)C | NCI-H510 multicellular tumor spheroid growth, % test/control | % | 3.34 |
| C=CC(=O)N1CCN(c2nc(=O)n(-c3c(C)ccnc3C(C)C)c3nc(-c4c(O)cccc4F)c(F)cc23)C(C)C1 (centres undefined) + Cc1c(S(C)(=O)=O)c(-c2cc(F)cc(N3CCN(c4ccc(NS(=O)(=O)c5ccc(NC(CCN6CCC(C(=O)OCCCP(=O)(O)O)CC6)CSc6ccccc6)c(S(=O)(=O)C(F)(F)F)c5)cc4)CC3)c2)c(-c2ccc(Cl)cc2)n1C(C)C | NCI-H510 multicellular tumor spheroid growth, % test/control | % | 108 |
| C#Cc1c(F)ccc2cc(O)cc(-c3ncc4c(N5CC6CCC(C5)N6)nc(OCC56CCCN5CC(F)C6)nc4c3F)c12 (centres undefined) + Cc1c(S(C)(=O)=O)c(-c2cc(F)cc(N3CCN(c4ccc(NS(=O)(=O)c5ccc(NC(CCN6CCC(C(=O)OCCCP(=O)(O)O)CC6)CSc6ccccc6)c(S(=O)(=O)C(F)(F)F)c5)cc4)CC3)c2)c(-c2ccc(Cl)cc2)n1C(C)C | NCI-H510 multicellular tumor spheroid growth, % test/control | % | 77 |

Lab note: next compound to report on.
Q: Sample C=C(F)C(=O)N1CCN(c2nc(OCC3CCCN3C)nc3c2CCN(c2cccc4cccc(Cl)c24)C3)CC1CC#N (centres undefined) + Cc1c(S(C)(=O)=O)c(-c2cc(F)cc(N3CCN(c4ccc(NS(=O)(=O)c5ccc(NC(CCN6CCC(C(=O)OCCCP(=O)(O)O)CC6)CSc6ccccc6)c(S(=O)(=O)C(F)(F)F)c5)cc4)CC3)c2)c(-c2ccc(Cl)cc2)n1C(C)C — what was its viability, T/C?
Ans: 0.14

* * *

Measured IC50, listed per entry.
System: NCI-H510 multicellular tumor spheroid growth, % test/control
Test: Anticancer human tumor NCI-H510 cell line growth inhibition [Asc];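 also: spheroids exposed to agents for 7 days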
Details: curve of first compound; second compound 0.0949 µM

| COMPOUND | IC50 |
| --- | --- |
| NC(=O)C(=Cn1cnc(-c2cc(C(F)(F)F)cc(C(F)(F)F)c2)n1)c1cncnc1 + CCN1C(C(=O)NC23CCC(C(=O)O)(CC2)CC3)C(c2cccc(Cl)c2F)C2(C(=O)Nc3cc(Cl)ccc32)C12CCCCC2 | 183 nM |
| Cc1nc(N2CCC3(CC2)COC(C)C3N)c(CO)nc1Sc1ccnc(N)c1Cl (configuration not stated) + CCN1C(C(=O)NC23CCC(C(=O)O)(CC2)CC3)C(c2cccc(Cl)c2F)C2(C(=O)Nc3cc(Cl)ccc32)C12CCCCC2 | > 3000 nM |
| CNC(C)C(=O)NC1CN(S(=O)(=O)c2cccc(S(=O)(=O)N3CCC4CCC(C(=O)NC(c5ccccc5)c5ccccc5)N4C(=O)C(NC(=O)C(C)NC)C3)c2)CCC2CCC(C(=O)NC(c3ccccc3)c3ccccc3)N2C1=O (configuration not stated) + CCN1C(C(=O)NC23CCC(C(=O)O)(CC2)CC3)C(c2cccc(Cl)c2F)C2(C(=O)Nc3cc(Cl)ccc32)C12CCCCC2 | > 1000 nM |

Q: Sample NC1CCC(NC2CC2c2ccccc2)CC1 (configuration not stated) + CCN1C(C(=O)NC23CCC(C(=O)O)(CC2)CC3)C(c2cccc(Cl)c2F)C2(C(=O)Nc3cc(Cl)ccc32)C12CCCCC2 — what was its IC50?
Ans: > 100 nM

Q: Sample COc1c(OCCCN2CCOCC2)ccc2c3n(c(=NC(=O)c4cnc(N)nc4)nc12)CCN3 + CCN1C(C(=O)NC23CCC(C(=O)O)(CC2)CC3)C(c2cccc(Cl)c2F)C2(C(=O)Nc3cc(Cl)ccc32)C12CCCCC2 — what was its IC50?
Ans: > 1000 nM

Q: Sample CCN1CCN(Cc2ccc(Nc3ncc(F)c(-c4cc(F)c5nc(C)n(C(C)C)c5c4)n3)nc2)CC1 + CCN1C(C(=O)NC23CCC(C(=O)O)(CC2)CC3)C(c2cccc(Cl)c2F)C2(C(=O)Nc3cc(Cl)ccc32)C12CCCCC2 — what was its IC50?
Ans: > 1000 nM

Q: Sample C=C(F)C(=O)N1CCN(c2nc(OCC3CCCN3C)nc3c2CCN(c2cccc4cccc(Cl)c24)C3)CC1CC#N (configuration not stated) + CCN1C(C(=O)NC23CCC(C(=O)O)(CC2)CC3)C(c2cccc(Cl)c2F)C2(C(=O)Nc3cc(Cl)ccc32)C12CCCCC2 — what was its IC50?
Ans: 1100 nM
